tested on: WISH; experiment: Cytotoxicity against human WISH cells assessed as decrease in cell viability after 48 hrs by MTT assay; type: cell-based
Lab note: compare IC50 with 20 µM, writing Fulfilled if less and Not fulfilled if equal or more.

{"Compound": "Cc1n[nH]c2c1C(c1ccc(N(C)C)cc1)C(C(=O)NNC(N)=S)=C(N)N2 (stereo not given)", "Class": "Not fulfilled"}
{"Compound": "Cc1n[nH]c2c1C(c1ccc(N(C)C)cc1)C(C(N)=O)=C(N)N2 (stereo not given)", "Class": "Not fulfilled"}

INPUT: Below 20 µM on IC50? Entry Cc1n[nH]c2c1C(c1ccc(N(C)C)cc1)C(C(=O)NNc1cc([N+](=O)[O-])ccc1[N+](=O)[O-])=C(N)N2 (stereo not given)
OUTPUT: Not fulfilled

INPUT: Strictly below 20 µM in IC50? Cc1n[nH]c2c1C(c1ccc(N(C)C)cc1)C=C(N)N2 (stereo not given)
OUTPUT: Not fulfilled

INPUT: Bench note: check whether COc1cccc2c1C(=O)c1c(O)c3c(c(O)c1C2=O)C[C@@](O)(C(=O)CO)C[C@@H]3O[C@H]1C[C@H](N)[C@H](O)[C@H](C)O1 shows IC50 below 20 µM
OUTPUT: Fulfilled

====

Collected pIC50 values appear next to each entry.
test system: HeLa; experiment: Cytotoxicity against human HeLa cells assessed as decrease in cell viability after 48 hrs by MTT assay; format: functional, cell-based
Remember the convention: pIC50 equals -log10 of concentration in molar.

INPUT: State the recorded pIC50 for this entry: Cc1n[nH]c2c1C(c1ccc(N(C)C)cc1)C=C(N)N2 (centres undefined)
OUTPUT: 4.56

====

tested on: Bacillus cereus; assay: Antimicrobial activity against Bacillus cereus UW 85 after 24 hrs by two-fold serial dilution method; type: functional; conditions: UW 85, 24 h
# MIC per record follows
Remember to quote the unit after the number.

Answered examples (7):
{"Molecule": "Cc1n[nH]c2c1C(c1ccc(N(C)C)cc1)C(C(=O)NN)=C(N)N2 (stereo not drawn)", "Target or system": "Bacillus cereus", "MIC": "764 µM"}
{"Molecule": "Cc1n[nH]c2c1C(c1ccc(N(C)C)cc1)C(C(=O)N/N=C1/C(=O)Nc3ccccc31)=C(N)N2 (stereo not drawn)", "Target or system": "Bacillus cereus", "MIC": "2190 µM"}
{"Molecule": "CC1(C)S[C@@H]2[C@H](NC(=O)[C@H](N)c3ccccc3)C(=O)N2[C@H]1C(=O)O [AMPICILLIN]", "Target or system": "Bacillus cereus", "MIC": "1430 µM"}
{"Molecule": "Cc1n[nH]c2c1C(c1ccc(N(C)C)cc1)C=C(N)N2 (stereo not drawn)", "Target or system": "Bacillus cereus", "MIC": "3710 µM"}
{"Molecule": "Cc1n[nH]c2c1C(c1ccc(N(C)C)cc1)C(C(=O)O)=C(N)N2 (stereo not drawn)", "Target or system": "Bacillus cereus", "MIC": "99.7 µM"}
{"Molecule": "Cc1n[nH]c2c1C(c1ccc(N(C)C)cc1)C(C(=O)NNC(N)=S)=C(N)N2 (stereo not drawn)", "Target or system": "Bacillus cereus", "MIC": "647 µM"}
{"Molecule": "Cc1n[nH]c2c1C(c1ccc(N(C)C)cc1)C(C(=O)NNc1cc([N+](=O)[O-])ccc1[N+](=O)[O-])=C(N)N2 (stereo not drawn)", "Target or system": "Bacillus cereus", "MIC": "253 µM"}

From here, focus on the item given below.
INPUT: // lookup MIC for Cc1n[nH]c2c1C(c1ccc(N(C)C)cc1)C(C(=O)N/N=C/c1ccc(Cl)cc1)=C(N)N2 (stereo not drawn)
OUTPUT: 556 µM
